Assay procedure: Acute toxicity (LD50) on mice
Assay context: mouse, in vivo, po
Property measured: LD50 (mg/kg)
One number for each entry, in mg/kg.

Sample records with LD50:
> print(dat)
                                   compound  property.measured  measured
1              COC(=O)CCC(C)=NNc1ccc(Cl)nn1               LD50       200
2             CCOC(=O)CCC(C)=NNc1ccc(Cl)nn1               LD50       200
3  CCOC(=O)C1CCCCC1=NNc1ccc(Cl)nn1 (stereo not drawn)               LD50       300

Hey, can you go through the list below and give me LD50 for every item?
1. CCOC(=O)CCCC(C)=NNc1ccc(Cl)nn1
2. CC(CC(=O)OC(C)(C)C)=NNc1ccc(Cl)nn1

[200, 250]

====

Experimental system: dopamine-β-hydroxylase (Bos taurus, UniProt P15101)
Construct: from tissue; host or cells: bovine adrenal (gland) preparations
Sequence (P15101 whole entry): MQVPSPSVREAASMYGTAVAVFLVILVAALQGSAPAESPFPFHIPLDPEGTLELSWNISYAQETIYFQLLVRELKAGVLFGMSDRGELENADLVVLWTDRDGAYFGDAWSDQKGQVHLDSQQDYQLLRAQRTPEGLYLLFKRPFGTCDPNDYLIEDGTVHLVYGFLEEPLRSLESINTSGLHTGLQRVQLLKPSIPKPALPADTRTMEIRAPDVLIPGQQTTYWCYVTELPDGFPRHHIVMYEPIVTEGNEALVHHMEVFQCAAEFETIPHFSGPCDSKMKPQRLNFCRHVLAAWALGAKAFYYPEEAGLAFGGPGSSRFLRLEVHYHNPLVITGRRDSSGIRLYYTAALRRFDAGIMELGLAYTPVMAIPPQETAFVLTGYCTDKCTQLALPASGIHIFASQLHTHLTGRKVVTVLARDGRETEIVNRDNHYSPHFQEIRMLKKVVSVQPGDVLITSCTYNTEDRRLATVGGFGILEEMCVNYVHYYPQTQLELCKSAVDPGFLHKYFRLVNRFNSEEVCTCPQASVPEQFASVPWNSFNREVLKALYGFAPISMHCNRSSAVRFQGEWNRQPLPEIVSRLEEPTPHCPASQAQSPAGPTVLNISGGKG
Assay procedure: Dopamine-β-hydroxylase inhibiting activity (DBH) on bovine adrenal (gland) preparations
Type: biochemical
Assay context: 10^-5 mole/liter; read-out: Enzyme inhibiting activity, DBH
Dear colleague, classification is by inhibition at 10 µM, with ranges listed here: low = under 10%, intermediate = from 10% up to 50%, high = 50% and over

These recorded examples may help you get a feel for the data.
> print(dat)
                                   compound   label.class
1                  CCOC(=O)CC(C)=NNc1cccnn1          high
2           CC(CC(=O)OC(C)C)=NNc1ccc(Cl)nn1  intermediate
3  CC1CCCCC1=NNc1ccc(Cl)nn1 (stereo not drawn)  intermediate

Consider the additional compound presented here.
Hey, which category is `CC(CCCC(=O)O)=NNc1ccc(Cl)nn1` in, do you know? low

====

Assay procedure: Acute toxicity (LD50) on mice
Assay context: mouse, in vivo, po
Property measured: LD50 (mg/kg)
Answers are plain numbers, in mg/kg.

Answered examples (2):
> print(dat)
                     chemical.smiles  measured
1       CCOC(=O)CC(C)=NNc1ccc(Cl)nn1       530
2  CC(CC(=O)OC(C)(C)C)=NNc1ccc(C)nn1       200

I'm hoping you can list LD50 for every compound here, please.
1. CC(CC(=O)OC(C)C)=NNc1ccc(Cl)nn1
2. CC(CCCC(=O)O)=NNc1ccc(Cl)nn1
3. CC(CCCC(=O)O)=NNc1ccc(N2CCOCC2)nn1

[250, 200, 200]

====

Experimental system: tyrosine-hydroxylase (Rattus norvegicus, UniProt P04177)
Construct: on rat adrenal homogenate; from tissue; host or cells: rat adrenal homogenate
Sequence (P04177 whole entry): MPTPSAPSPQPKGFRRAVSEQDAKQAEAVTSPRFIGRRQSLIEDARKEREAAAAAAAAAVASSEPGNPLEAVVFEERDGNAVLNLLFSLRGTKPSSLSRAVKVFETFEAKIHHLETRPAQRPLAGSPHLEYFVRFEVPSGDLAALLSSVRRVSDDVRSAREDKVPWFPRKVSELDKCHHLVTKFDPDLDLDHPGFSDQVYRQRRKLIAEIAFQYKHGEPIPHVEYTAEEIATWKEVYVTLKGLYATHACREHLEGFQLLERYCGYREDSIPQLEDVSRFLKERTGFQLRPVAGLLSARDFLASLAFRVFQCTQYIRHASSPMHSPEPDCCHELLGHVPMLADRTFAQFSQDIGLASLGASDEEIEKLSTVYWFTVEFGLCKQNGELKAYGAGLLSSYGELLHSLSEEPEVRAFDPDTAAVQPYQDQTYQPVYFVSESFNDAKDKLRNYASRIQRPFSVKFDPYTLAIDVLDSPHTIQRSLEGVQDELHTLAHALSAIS
Assay procedure: In vitro tyrosine-hydroxylase inhibiting activity (TH) on rat adrenal homogenate
Format: biochemical
Assay context: 10^-4 mole/liter; read-out: Enzyme inhibiting activity, TH
Property measured: inhibition at 100 µM (%)
Answers are plain numbers, in %.

Illustrative cases are given below, each with its answer.
> print(dat)
                                   molecule     property.measured  measured
1  CC(CC(=O)OC(C)(C)C)=NNc1ccc(Cl)nn1 [Example 30]  inhibition at 100 µM        50
2  COC(=O)CC(=NNc1ccc(Cl)nn1)C(=O)OC [Example 64]  inhibition at 100 µM        36
3  CC1CCCCC1=NNc1ccc(Cl)nn1 (stereo not shown) [Example 15]  inhibition at 100 µM       100

// for each molecule in input: emit inhibition at 100 µM
1. O=C(O)C1CCCCC1=NNc1cccnn1 (stereo not shown) [Example 19]
2. CC(=NNc1cccnn1)c1ccccc1 [Example 13]
3. c1cnnc(NN=C2CCCCC2)c1 [Example 12, Cyclohexylidene-3-pyridazinylhydrazone]
4. CC12CCC(CC1=NNc1cccnn1)C2(C)C (stereo not shown) [Example 3]

[82, 95, 100, 100]

Provide each entry's inhibition at 100 µM from the list below.
1. CC(CC(=O)OC(C)C)=NNc1ccc(Cl)nn1 [Example 29]
2. CC(N)(Cc1ccc(O)cc1)C(=O)O (racemic) [D,L-α-methyl-4-hydroxy-phenyl-alanine, reference compound]

1: 50; 2: 100

Look up inhibition at 100 µM for the entries below, preserving their order.
1. CC(CC(=O)OC(C)(C)C)=NNc1ccc(N2CCOCC2)nn1 [Example 52]
2. CCCOC(=O)CC(C)=NNc1ccc(Cl)nn1 [Example 28]
3. O=C(O)C1CCCCC1=NNc1ccc(Cl)nn1 (stereo not shown) [Example 18]

1: 65; 2: 0; 3: 100
